tested on: U-2932; assay: growth inhibition by drug alone (1 - RLU/untreated control) (fraction); higher = stronger inhibition; conditions: 10 nM; time (day): 3; 177Lu-lilotomab satetraxetan 0 ug/ml

molecule: Cc1[nH]c(/C=C2\C(=O)Nc3ccc(S(=O)(=O)Cc4c(Cl)cccc4Cl)cc32)c(C)c1C(=O)N1CCC[C@@H]1CN1CCCC1
growth inhibition by drug alone: -0.0448
--
molecule: Nc1nccc(-c2ccc3noc(-c4ccc(Cl)cc4)c3c2)n1 [PIM-1 Inhibitor 2]
growth inhibition by drug alone: 0.154
--
molecule: Cc1cnc(Nc2ccc(OCCN3CCCC3)cc2)nc1Nc1cccc(S(=O)(=O)NC(C)(C)C)c1
growth inhibition by drug alone: -0.0562
--
molecule: CCCCCCCCc1ccc(CCC(N)(CO)CO)cc1 [Fingolimod (FTY720)]
growth inhibition by drug alone: 0.0955
--
molecule: CCN1CCN(Cc2ccc(-c3cc4c(N[C@H](C)c5ccccc5)ncnc4[nH]3)cc2)CC1
growth inhibition by drug alone: -0.00148
--
molecule: Fc1cc(-c2cccc3ncc(-c4cnn(C5CCNCC5)c4)nc23)cc(F)c1CN1CCOCC1
growth inhibition by drug alone: 0.107
--
molecule: CCCCc1nc2cc(/C=C/C(=O)NO)ccc2n1CCN(CC)CC [SB939 (Pracinostat)]
growth inhibition by drug alone: 0.0917
--
molecule: COC(=O)c1ccc2c(C(=Nc3ccc(N(C)C(=O)CN4CCN(C)CC4)cc3)c3ccccc3)c(O)[nH]c2c1 [BIBF1120 (Vargatef)]
growth inhibition by drug alone: -0.0536
--
molecule: Cc1ccc(Nc2nccc(N(C)c3ccc4c(C)n(C)nc4c3)n2)cc1S(N)(=O)=O [Pazopanib]
growth inhibition by drug alone: 0.0671
--
molecule: CC(C)c1ccc(Cn2ccc3c4c(N)nc(NC5CC5)nc4ccc32)cc1
growth inhibition by drug alone: 0.155
--
molecule: CN(C)CCCN=c1c2ccccc2n(C)c2[nH]c(=O)n(C)c(=O)c12
growth inhibition by drug alone: 0.111
--
molecule: CCN(CC)CCOc1ccc(Nc2ncc3cc(-c4c(Cl)cccc4Cl)c(=O)n(C)c3n2)cc1
growth inhibition by drug alone: 0.107
--
molecule: CCCCCCCc1ccc(CCc2cccc(O)c2C(=O)O)cc1
growth inhibition by drug alone: -0.00199
--
molecule: Nc1[nH]nc2nnc(-c3c(-c4ccccc4)nn4ccccc34)cc12
growth inhibition by drug alone: 0.0936
--
molecule: Cc1oc(S(=O)(=O)N2CCCCC2)cc1NC(=O)Nc1ccccc1
growth inhibition by drug alone: 0.104
--
molecule: C=C1/C(=C\C=C2/CCC[C@]3(C)[C@@H]([C@H](C)/C=C/[C@H](C)C(C)C)CC[C@@H]23)C[C@@H](O)C[C@@H]1O [Doxercalciferol (Hectorol)]
growth inhibition by drug alone: 0.174
--
molecule: Cc1cn(-c2cc(NC(=O)c3ccc(C)c(Nc4nccc(-c5cccnc5)n4)c3)cc(C(F)(F)F)c2)cn1 [Nilotinib (AMN-107)]
growth inhibition by drug alone: 0.0488

====

test system: U-2932; assay: growth inhibition by drug plus 177Lu-lilotomab satetraxetan (1 - RLU/untreated control) (fraction); higher = stronger inhibition; settings: 10 nM; time (day): 3; 177Lu-lilotomab satetraxetan 1 ug/ml
property: growth inhibition by drug plus 177Lu-lilotomab satetraxetan

compound: Cc1ccc(C(=O)N(CCCN)[C@@H](c2nc3cc(Cl)ccc3c(=O)n2Cc2ccccc2)C(C)C)cc1
result: 0.393
//
compound: O=C(CCCCCCC(=O)Nc1cccnc1)NO [Pyroxamide]
result: -0.106
//
compound: Cc1c(CCOc2ccc(C(=O)O)cc2)c2cc(Cl)ccc2n1C(c1ccccc1)c1ccccc1
result: -0.0474
//
compound: Cc1ccc([C@@H]2O[C@H](CO)[C@@H](O)[C@H](O)[C@H]2O)cc1Cc1ccc(-c2ccc(F)cc2)s1 [Canagliflozin]
result: 0.00296
//
compound: CN(C)CCCN=c1c2ccccc2n(C)c2[nH]c(=O)n(C)c(=O)c12
result: 0.0369
//
compound: CN(N=O)C(=O)N[C@@H](C=O)[C@@H](O)[C@H](O)[C@H](O)CO [Streptozotocin (Zanosar)]
result: -0.0646
//
compound: COc1ccc2c3n(c(=NC(=O)c4cccnc4)nc2c1OC)CCN3
result: 0.021
//
compound: O=C(O)CCc1ccc(NCc2cccc(Oc3ccccc3)c2)cc1
result: -0.0541
//
compound: CNC(=O)c1cc(Oc2ccc(NC(=O)Nc3ccc(Cl)c(C(F)(F)F)c3)cc2)ccn1 [Sorafenib (Nexavar)]
result: -0.0368
//
compound: CCN(CC)CCCC(C)Nc1nc(C)cc(Nc2ccc3nc(C)cc(N)c3c2)n1 (centres undefined)
result: 0.0413
//
compound: O=C(/C=C/c1cccc(S(=O)(=O)Nc2ccccc2)c1)NO [Belinostat (PXD101)]
result: 0.0215
//
compound: O=C(NOC[C@H](O)CO)c1ccc(F)c(F)c1Nc1ccc(I)cc1F
result: 0.138
//
compound: CN(NC(=O)CC(=O)NN(C)C(=S)c1ccccc1)C(=S)c1ccccc1 [Elesclomol]
result: 0.854
//
compound: CC(C)[C@H](C(=O)Nc1ccc(C(=O)NO)cc1)c1ccccc1
result: 0.037
//
compound: CCn1c(-c2nonc2N)nc2cnc(Oc3cccc(NC(=O)c4ccc(OCCN5CCOCC5)cc4)c3)cc21
result: -0.198
//
compound: CCc1cc(-c2n[nH]c(C)c2-c2ccc3c(c2)OCCO3)c(O)cc1O
result: 0.0102
//
compound: CN(Cc1cnc2nc(N)nc(N)c2n1)c1ccc(C(=O)N[C@@H](CCC(=O)O)C(=O)O)cc1 [Abitrexate (Methotrexate)]
result: -0.123
//
compound: CN(C)c1ccccc1CN1CCCN(Cc2ccccc2N(C)C)C1c1ccncc1
result: -0.0506
//
compound: COc1ccc2c(c1)CCC1C2CCC2(C)C(NCCCCCCN3C(=O)C=CC3=O)CCC12 (centres undefined)
result: 0.00613
//
compound: COc1ccccc1OCC(O)CN1CCN(CC(=O)Nc2c(C)cccc2C)CC1 (centres undefined) [Ranolazine (Ranexa)]
result: -0.0197
//
compound: CC(C=CC(=O)NO)=CC(C)C(=O)c1ccc(N(C)C)cc1 (centres undefined) [Trichostatin A (TSA)]
result: 0.0166
//
compound: Cc1[nH]c(/C=C2\C(=O)Nc3ccc(S(=O)(=O)Cc4c(Cl)cccc4Cl)cc32)c(C)c1C(=O)N1CCC[C@@H]1CN1CCCC1
result: -0.098
//
compound: C[C@]12CC[C@@H]3c4ccc(O)cc4CC[C@H]3[C@@H]1CCC2=O [Estrone]
result: 0.0282
//
compound: Cc1csc(-c2nnc(Nc3ccc(Oc4ncccc4-c4ccnc(N)n4)cc3)c3ccccc23)c1
result: 0.0788
//
compound: CCOC(=O)C1=C[C@]2(CC)CCCN3CCc4c(n1c1ccccc41)[C@@H]32 [Vinpocetine (Cavinton)]
result: -0.0659
//
compound: O=C(O)C1(C(=O)O)CCC1.[NH2-].[NH2-].[Pt+2] [Carboplatin]
result: -0.0315
//
compound: CCNC(=O)c1noc(-c2cc(C(C)C)c(O)cc2O)c1-c1ccc(CN2CCOCC2)cc1
result: 0.117
//
compound: C=CC[C@@H]1/C=C(\C)C[C@H](C)C[C@H](OC)[C@H]2O[C@@](O)(C(=O)C(=O)N3CCCC[C@H]3C(=O)O[C@H](/C(C)=C/[C@@H]3CC[C@@H](O)[C@H](OC)C3)[C@H](C)[C@@H](O)CC1=O)[C@H](C)C[C@@H]2OC [FK-506 (Tacrolimus)]
result: 0.323
//
compound: CCN(CC)CCOc1ccc(Nc2ncc3cc(-c4c(Cl)cccc4Cl)c(=O)n(C)c3n2)cc1
result: 0.0115
//
compound: CC(C)(C)c1cnc(CSc2cnc(NC(=O)C3CCNCC3)s2)o1
result: -0.136
//
compound: CN1CCC(CNc2ccc3ncc(-c4cccc(OC(F)(F)F)c4)n3n2)CC1 [SGI-1776 free base]
result: -0.0394
//
compound: Nc1cccc2c1CN(C1CCC(=O)NC1=O)C2=O (centres undefined) [Lenalidomide]
result: 0.069
//
compound: O=C(O[C@@H]1Cc2c(O)cc(O)cc2O[C@@H]1c1cc(O)c(O)c(O)c1)c1cc(O)c(O)c(O)c1 [(-)-Epigallocatechin gallate]
result: -0.0356
//
compound: Nc1[nH]nc2nnc(-c3c(-c4ccccc4)nn4ccccc34)cc12
result: 0.135
